Origin of values: the supplement of paper PMC4466140

- TEST TARGET: AgBzz1-D1
- ASSAY PROCEDURE: SPOT peptide array binding signal intensity (averaged, normalized) (arbitrary units (background-subtracted, floor 0; scale differs between SH3 domains)); higher = stronger binding of the SH3 domain to the peptide
METRIC: SPOT peptide array binding signal intensity

{"BINDER": "NTMKKRPAPPSLPSL", "COMPARISON SIGN": "=", "RESULT NUMBER": 152}
{"BINDER": "DTIDNVKSKIQDKEG", "COMPARISON SIGN": "≤", "RESULT NUMBER": 0}
{"BINDER": "EREKALPPIPFTTTL", "COMPARISON SIGN": "=", "RESULT NUMBER": 13}
{"BINDER": "SSSSSPPPLPTRRDH", "COMPARISON SIGN": "=", "RESULT NUMBER": 26}
{"BINDER": "TTAPALPSLPPPPLL", "COMPARISON SIGN": "=", "RESULT NUMBER": 22}
{"BINDER": "APPLPPTAPPPPSLP", "COMPARISON SIGN": "≤", "RESULT NUMBER": 0}
{"BINDER": "QTMRQAPKRPDADVA", "COMPARISON SIGN": "=", "RESULT NUMBER": 11}
{"BINDER": "YVRRRPRVRLEPLLS", "COMPARISON SIGN": "=", "RESULT NUMBER": 152}
{"BINDER": "NQARKPFLLPATELS", "COMPARISON SIGN": "=", "RESULT NUMBER": 19}
{"BINDER": "LRIKRKPVQTFFEFI", "COMPARISON SIGN": "=", "RESULT NUMBER": 109}
{"BINDER": "NENKKLPPAPTVFGL", "COMPARISON SIGN": "=", "RESULT NUMBER": 27}
{"BINDER": "WTQRRGPLVVYAEDN", "COMPARISON SIGN": "=", "RESULT NUMBER": 11}
{"BINDER": "LPPPPPPPPPPPLPQ", "COMPARISON SIGN": "=", "RESULT NUMBER": 42.5}
{"BINDER": "VTHRLRISIPGITGR", "COMPARISON SIGN": "=", "RESULT NUMBER": 58}
{"BINDER": "VNIPSPSSSPPPIPK", "COMPARISON SIGN": "≤", "RESULT NUMBER": 0}
